# system tested: Gonadotropin-releasing hormone receptor (Homo sapiens, UniProt P30968)
# Sequence (P30968 whole entry): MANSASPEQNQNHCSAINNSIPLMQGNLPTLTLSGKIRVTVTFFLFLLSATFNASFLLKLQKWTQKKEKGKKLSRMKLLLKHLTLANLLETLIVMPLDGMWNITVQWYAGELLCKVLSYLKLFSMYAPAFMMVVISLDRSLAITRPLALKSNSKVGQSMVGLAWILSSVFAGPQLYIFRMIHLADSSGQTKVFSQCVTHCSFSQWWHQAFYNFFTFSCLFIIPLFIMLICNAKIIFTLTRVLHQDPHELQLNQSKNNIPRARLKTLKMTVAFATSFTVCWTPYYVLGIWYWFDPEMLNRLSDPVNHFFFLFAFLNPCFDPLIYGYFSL
pKi: −log10 of the molar value.
Entry flag: rule met if pKi reaches 7; rule not met if it does not.

// below: answered compounds
[
  {
    "compound": "Cc1ccc(-c2c(C)n(Cc3c(F)cccc3F)c(=O)n(C[C@H](N)c3ccccc3)c2=O)s1",
    "group": "rule met"
  },
  {
    "compound": "Cc1ccccc1Nc1nc(-c2c(C)n(Cc3c(F)cccc3F)c(=O)n(C[C@H](N)c3ccccc3)c2=O)cs1",
    "group": "rule not met"
  },
  {
    "compound": "Cc1c(-c2csc(N)n2)c(=O)n(C[C@H](N)c2ccccc2)c(=O)n1Cc1c(F)cccc1F",
    "group": "rule not met"
  },
  {
    "compound": "Cc1c(-c2csc(N3CCOCC3)n2)c(=O)n(C[C@H](N)c2ccccc2)c(=O)n1Cc1c(F)cccc1F",
    "group": "rule not met"
  },
  {
    "compound": "Cc1c(-c2ccc(Cl)s2)c(=O)n(C[C@H](N)c2ccccc2)c(=O)n1Cc1c(F)cccc1F",
    "group": "rule met"
  }
]

Prompt line: Entry Cc1ccc(-c2nc(-c3c(C)n(Cc4c(F)cccc4F)c(=O)n(C[C@H](N)c4ccccc4)c3=O)cs2)cc1F : is its pKi no less than 7?
Response line: rule met

Prompt line: Entry CCOC(=O)Nc1ccc(-c2nc(-c3c(C)n(Cc4c(F)cccc4F)c(=O)n(C[C@H](N)c4ccccc4)c3=O)cs2)cc1 : is its pKi no less than 7?
Response line: rule met

Prompt line: Entry Cc1c(-c2cccs2)c(=O)n(C[C@H](N)c2ccccc2)c(=O)n1Cc1c(F)cccc1F : is its pKi no less than 7?
Response line: rule met

Prompt line: Entry Cc1ccc(Nc2nc(-c3c(C)n(Cc4c(F)cccc4F)c(=O)n(C[C@H](N)c4ccccc4)c3=O)cs2)cc1 : is its pKi no less than 7?
Response line: rule met

Prompt line: Entry COc1ccc(Nc2nc(-c3c(C)n(Cc4c(F)cccc4F)c(=O)n(C[C@H](N)c4ccccc4)c3=O)cs2)cc1 : is its pKi no less than 7?
Response line: rule met

Prompt line: Entry Cc1c(-c2csc(-c3ccc(F)cc3)n2)c(=O)n(C[C@H](N)c2ccccc2)c(=O)n1Cc1c(F)cccc1F : is its pKi no less than 7?
Response line: rule met

Prompt line: Entry Cc1c(-c2csc(-c3ccc(C(C)(C)C)cc3)n2)c(=O)n(C[C@H](N)c2ccccc2)c(=O)n1Cc1c(F)cccc1F : is its pKi no less than 7?
Response line: rule not met

Prompt line: Entry Cc1c(-c2csc(-c3ccc4c(c3)CCO4)n2)c(=O)n(C[C@H](N)c2ccccc2)c(=O)n1Cc1c(F)cccc1F : is its pKi no less than 7?
Response line: rule met
